Assay: NCI Yeast Anticancer Drug Screen. Data for the bub3 strain (AID 167)
Details: S. cerevisiae bub3 mutant strain, at 5.0 µM (retest, dose inferred, filed as 0.5), stronger effect = higher value
This is part of a sample that, as a whole, favours compounds with a hit. Of some 79,000 tested, about 15% had one in any assay.
OBSERVABLE: growth inhibition (%)
Express the result in % but write the number alone.

Answered examples (3):
c1cc2c3c(c1)[I+]c1cccc(c1-3)[I+]2    39
N#CCc1ccc2c(c1)Sc1ccccc1O2    -62
Cc1cc(C)nc(CCSS(=O)(=O)O)c1    -1

Enquiry: Fill in: growth inhibition of COc1ccc(NC(=O)CSC(N)=O)cc1 is ___
Return: 3

Enquiry: Would you kindly repeat that for CC1Cc2cc(O)c(O)cc2-c2cc(O)c(O)cc2CC1C (configuration not stated) ?
Return: -30

Enquiry: Would you kindly repeat that for O=C(CSc1nccc(=O)[nH]1)c1ccccc1 ?
Return: -2

====

Assay: NCI Yeast Anticancer Drug Screen. Data for the cln2 rad14 strain (AID 165);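 note: 0% = growth equal to vehicle treated cultures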
Details: S. cerevisiae cln2 rad14 strain, at 50.0 µM (retest, dose inferred, filed as 5.0), stronger effect = higher value
About 79,000 compounds went through this panel and 15% of them were active in at least one assay; those are over-represented in the sample as a whole.
Think of 30% as a floor: if growth inhibition stands on it or above, it is MET; beneath it, NOT MET.

Reference set (3 entries):
[N-]=[N+]=Nc1c(C=O)c(=O)n(-c2ccccc2)c2ccccc12    NOT MET
C#CC(CC(C)C)(CC(C)C)OC(=O)Nc1ccccc1    MET
CCN(CC)CCOc1ccc(C(=C2CCCCC2)c2ccc(OCCN(CC)CC)cc2)cc1    MET

Enquiry: Threshold query (growth inhibition >= 30%) on CN(C)C1=NC2=S(SC(Nc3ccccc3)=N2)S1 (stereo unspecified)
Return: NOT MET

Enquiry: Would you kindly repeat that for O=C(O)c1cc2c(cc1CC(Cc1ccc3c(c1)CCCC3)C(=O)O)CCCC2 (stereo unspecified) ?
Return: MET

Enquiry: Would you kindly repeat that for O=C1C(=O)c2ccccc2C=C1Br ?
Return: MET

====

Experiment: NCI Yeast Anticancer Drug Screen. Data for the rad50 strain (AID 155);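 note: 0% = growth of vehicle-only cultures of the same strain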
Details: S. cerevisiae rad50 strain growth inhibition; at 50.0 µM
This is part of a sample that, as a whole, favours compounds with a hit. Of some 79,000 tested, about 15% had one in any assay. Calls of active or inactive are those of the source. Cut-off read from the data, not from the text of the source: active = growth inhibition above about 70%; inactive = the rest.
Could you please pick one outcome from this set? active, inactive

Reference set (2 entries):
CCN1CCC(O)(/C=C/c2ccc(Cl)c(Cl)c2)C(C(=O)/C=C/c2ccc(Cl)c(Cl)c2)C1 (configuration not stated)    active
CCC(CC=C(C)C)(CC=C(C)C)c1ccncc1 (tested in a mixture with another compound)    active

Enquiry: For this molecule, state the assay outcome: CCCCCCCCCCCCCCCCNCCCCCCCC(=O)O
Return: active

Enquiry: Would you kindly repeat that for CCC(CO)Nc1nc2cc(Cl)ccc2c2ccc(Cl)cc12 (configuration not stated) ?
Return: active

Enquiry: Would you kindly repeat that for CCN1C(Cl)=NS(=O)(=O)c2ccccc21 ?
Return: inactive

Enquiry: Would you kindly repeat that for COc1ccc(C2CC(=O)CC(=O)C2)cc1 ?
Return: inactive

Enquiry: Would you kindly repeat that for CCCc1cc2c(cc1CS(=O)(=O)CC)OCO2 ?
Return: inactive

Enquiry: Would you kindly repeat that for CCC(CO)Nc1nc2ccc(Br)cc2c2ccccc12 (configuration not stated) ?
Return: active

Enquiry: Would you kindly repeat that for O=C(CCl)Oc1ccc(Sc2ccc(OC(=O)CCl)cc2)cc1 ?
Return: active

Enquiry: Would you kindly repeat that for COc1ccccc1C1c2cc3c(cc2OC(C)(O)C1C)OCO3 (configuration not stated) ?
Return: active
